System: LOX IMVI
measurement.notes: NCI tumour cell line growth inhibition, 48 h
Active and inactive are the calls of the source. Rule as the data show it: active = GI50 up to about 1.1 µM and inactive = higher.
Possible outcomes: YES for active, NO for inactive

{"compound": "Cn1c(=O)c2c(nc3n(CCCCl)c(=O)ccn23)n(C)c1=O", "category": "NO"}
{"compound": "CC1(C)CCC(C)(C)c2cc(NC(=O)c3ccc(C(=O)O)cc3)ccc21", "category": "NO"}
{"compound": "CC1=CC(=O)c2c(C=O)c(O)c(O)c(C(C)C)c2C1=O", "category": "NO"}
{"compound": "Cc1ccc(C)c(C(=N)c2ccccc2Cc2ccccc2)c1", "category": "NO"}
{"compound": "CN1c2ccccc2C2c3c(O)ccc(O)c3C=C([N+](=O)[O-])C21 (configuration not stated)", "category": "YES"}
{"compound": "COc1cc(N2C(=O)C(=O)C3(CCCCC3)C2=O)cc(OC)c1OC", "category": "NO"}
{"compound": "O=[N+]([O-])C(Cl)=C/C(=C(\\Cl)SCc1ccccc1)[N+](=O)[O-]", "category": "NO"}
{"compound": "Cn1sc2ccccc2c1=S", "category": "NO"}
{"compound": "COc1cccc2c1C(=O)c1c(O)c3c(c(O)c1C2=O)C[C@@](O)(C(=O)CO)CC3OC1CC(NCCCCC(OC(C)=O)OC(C)=O)C(O)C(C)O1 (some centres not stated)", "category": "YES"}
{"compound": "Cc1ccc([N+](=O)[O-])cc1S(=O)(=O)Nc1ccc(C2=NOC(c3ccco3)C2)cc1 (configuration not stated)", "category": "NO"}
{"compound": "CC(C)=CCC[C@@H](C)C1=C(O)C(=O)C(C)=C(Nc2ccccc2F)C1=O", "category": "NO"}
{"compound": "O=C(CSC1=NCCN1)c1ccccc1", "category": "NO"}
{"compound": "CCN(CCO)CCNc1ccc(C)c2sc3ccccc3c(=O)c12", "category": "NO"}
{"compound": "CC(=O)CCC[C@H](C)[C@@H](O)[C@@H]1O[C@H]([C@@]2(C)CCC(=O)O2)C[C@H]1C(=O)O", "category": "NO"}
{"compound": "CC(=O)OCC1OC(n2c(C)c(C)c(C)c(C#N)c2=S)C(OC(C)=O)C(OC(C)=O)C1OC(C)=O (configuration not stated)", "category": "NO"}
{"compound": "CCOC(=O)Cn1c2ccc(Br)cc2c2nc3ccccc3nc21", "category": "NO"}
{"compound": "O=C(O)c1c(-c2cccc3ccccc23)sc(-c2cccc3ccccc23)c1C(=O)O", "category": "NO"}
{"compound": "Cc1cc(=O)oc2c(C3=NN(C=O)C(c4ccccc4)C3)c(O)ccc12 (configuration not stated)", "category": "NO"}
{"compound": "C=C(C)C(=O)O[C@@H]1C/C(C)=C\\[C@H](OC(C)=O)C[C@](C)(O)/C=C2/OC(=O)C(COC(C)=O)=C21", "category": "YES"}
{"compound": "O=C(O)CCCc1ccc2c(c1)C(C(=O)O)CC2 (configuration not stated)", "category": "NO"}
{"compound": "CNC(=O)Nn1c(SC)nc2ccccc21", "category": "NO"}
{"compound": "Cn1cnc([N+](=O)[O-])c1Sc1nccc(O)n1", "category": "NO"}
{"compound": "O=C(O)c1ccccc1/C=C1/Nc2ccccc2C1=O", "category": "NO"}
{"compound": "O=C1C2CCN(CC2)C1CN1CCOCC1 (configuration not stated)", "category": "NO"}
{"compound": "Cc1c(-c2ccccc2)[nH]c2ccc(Cl)cc2c1=O", "category": "NO"}
{"compound": "COC1/C=C/C(C)C(C(C)C(OC)C(C)CCC(=O)C(C)C(C/C=C/N(C)C=O)OC)OC(=O)/C=C/C=C(\\C)CC(OC)C(OC)C2=CC(=O)O[C@@H](C(C)C(OC)CC(OC)/C=C/C(C)C(O)C1)[C@H]2O (some centres not stated)", "category": "YES"}
{"compound": "CO/C1=C\\C(C)=C\\C(C)C(O)C(C)C/C(C)=C/C=C/C(OC)C(C(C)C(O)C(C)C2(O)CC(O)C(C)C(C(C)C)O2)OC1=O (configuration not stated)", "category": "YES"}
{"compound": "O=C(O)c1c2c(c(C(=O)O)c3ccccc13)-c1ccccc1-2", "category": "NO"}
{"compound": "COC(=O)C1=C(O)C(C(=O)OC)[C@]2(O)[C@H](C(=O)OC)[C@H]1C[C@@H](c1ccc(Cl)cc1Cl)[C@H]2C(=O)OC (some centres not stated)", "category": "NO"}
{"compound": "CCC(/C=C/c1ccccc1)=N\\NC(=S)N/N=C(/C=C/c1ccccc1)CC", "category": "NO"}
{"compound": "C/C=C(/C)C(=O)O[C@@H]1c2c(C)coc2C[C@H]2CC[C@H](O)[C@H](C)[C@]21C", "category": "NO"}
{"compound": "Cc1cc(O)nc(NN2C(Cl)C(=O)C2c2cccc(O)c2)n1 (configuration not stated)", "category": "NO"}

---

Test system: A498
measurement.notes: NCI tumour cell line growth inhibition, 48 h
Calls of active or inactive are those of the source. No stated cut-off is given here; in the data, active = GI50 up to about 1.1 µM and inactive = higher.
List of GI50 values.

{"molecule": "CCc1nc(N)nc(N)c1-c1ccc([N+](C)(C)C)cc1", "GI50": "> 100 µM (inactive)"}
{"molecule": "O=C1/C(=N/CCc2cc(Br)c(O)c(Br)c2)C=C(O)c2cccnc21", "GI50": "3.08 µM (inactive)"}
{"molecule": "CCCCCCCC(=O)OCC1OC(n2cc(F)c(=O)[nH]c2=O)C(N)C(OC(=O)CCCCCCC)C1O (centres undefined)", "GI50": "20.3 µM (inactive)"}
{"molecule": "CC(O)(C#N)CC(O)(C(F)(F)Cl)C(F)(F)Cl (centres undefined)", "GI50": "> 10 µM (inactive)"}

---

System: SK-MEL-2
measurement.notes: NCI tumour cell line growth inhibition, 48 h
Activity calls are given as the source filed them. Rule as the data show it: active = GI50 up to about 1.1 µM and inactive = higher.

{"molecule": "CC(=O)OCC1OC(Nc2nc(O)n(C)c(=O)c2-c2csc(N)n2)C(OC(C)=O)C(OC(C)=O)C1OC(C)=O (stereo not given)", "target.or.test.system": "SK-MEL-2", "GI50": "> 100 µM (inactive)"}
{"molecule": "N=C(N)NCCCC(NCc1c2ccccc2[n+]([O-])c2ccccc12)C(=O)O (stereo not given)", "target.or.test.system": "SK-MEL-2", "GI50": "> 100 µM (inactive)"}
{"molecule": "CCOC(=O)C1CC(O)C(=O)N1C (stereo not given)", "target.or.test.system": "SK-MEL-2", "GI50": "> 100 µM (inactive)"}
{"molecule": "c1ccc2c(c1)SCCC2NC1=NCCO1 (stereo not given)", "target.or.test.system": "SK-MEL-2", "GI50": "> 100 µM (inactive)"}
{"molecule": "C=CCc1cccc2cc(C(=O)Nc3ccccn3)c(=N)oc12", "target.or.test.system": "SK-MEL-2", "GI50": "> 100 µM (inactive)"}
{"molecule": "Cc1cc(-c2nc3cc(F)c(F)cc3s2)ccc1N", "target.or.test.system": "SK-MEL-2", "GI50": "> 58.5 µM (inactive)"}
{"molecule": "Nn1c(-c2ccccc2Cl)nc2ccccc2c1=O", "target.or.test.system": "SK-MEL-2", "GI50": "> 100 µM (inactive)"}
{"molecule": "O=C1C2CCN(CC2)C1CN1CCOCC1 (stereo not given)", "target.or.test.system": "SK-MEL-2", "GI50": "17.5 µM (inactive)"}
{"molecule": "CC#CC#C/C=C1/O[C@]2(CCC(OC(=O)CC(C)C)CO2)[C@@H]2O[C@H]12 (stereo not given in full)", "target.or.test.system": "SK-MEL-2", "GI50": "21.6 µM (inactive)"}
{"molecule": "O=C1[C@H](Cl)[C@H]2c3cc4ccccc4nc3Oc3ccccc3N12", "target.or.test.system": "SK-MEL-2", "GI50": "36.5 µM (inactive)"}

---

Tested on: MDA-N
measurement.notes: NCI tumour cell line growth inhibition, 48 h
The source made the active and inactive calls. Cut-off read from the data, not from the text of the source: active = GI50 up to about 1.1 µM and inactive = higher.

{"compound": "CC(=O)OC(CCC1(C)OC1COc1ccc(CCNC(=O)C=C(C)C)cc1)C(C)(C)OC(C)=O (stereo not drawn)", "GI50": "13.3 µM (inactive)"}
{"compound": "O=C1CSSCC(=O)Nc2ccccc2N1", "GI50": "> 100 µM (inactive)"}
{"compound": "COC(=O)C1Cc2c([nH]c3ccccc23)-c2[nH]c3ccccc3c2CC(NC(C)=O)C(=O)NCC(=O)NCC(=O)N1 (stereo not drawn)", "GI50": "> 100 µM (inactive)"}

---

Tested on: MOLT-4
measurement.notes: NCI tumour cell line growth inhibition, 48 h
The source made the active and inactive calls. Cut-off read from the data, not from the text of the source: active = GI50 up to about 1.1 µM and inactive = higher.
Measured GI50 accompanies every entry in the list below.

{"molecule": "O=[N+]([O-])[C@@H]1C2C=CC(C2)[C@H]1Cl (some centres not stated)", "target.or.test.system": "MOLT-4", "GI50": "> 100 µM (inactive)"}
{"molecule": "COc1ccc(/C(=N\\NC(=O)NN)C(c2ccc(OC)cc2)C2(O)C(=O)Nc3c(Cl)cc(Cl)cc32)cc1 (configuration not stated)", "target.or.test.system": "MOLT-4", "GI50": "5.93 µM (inactive)"}
{"molecule": "CNC(=O)Nn1c(SC)nc2ccccc21", "target.or.test.system": "MOLT-4", "GI50": "> 100 µM (inactive)"}
{"molecule": "CC12CCC(Br)C(C)(C)C1CC=C1C(=O)OCC1O2 (configuration not stated)", "target.or.test.system": "MOLT-4", "GI50": "7.05 µM (inactive)"}
{"molecule": "CCCCOC(=O)NC(=O)c1cn(CCCOC(=O)CCCCCCCCC(=O)OCCCn2cc(C(=O)NC(=O)OCCCC)c(=O)n(C)c2=O)c(=O)n(C)c1=O", "target.or.test.system": "MOLT-4", "GI50": "> 100 µM (inactive)"}
{"molecule": "CC(ON(C(c1ccccc1)C(C)C)C(C)(C)C)c1ccccc1 (configuration not stated)", "target.or.test.system": "MOLT-4", "GI50": "15 µM (inactive)"}
{"molecule": "C=CCNc1ccc(C)cc1", "target.or.test.system": "MOLT-4", "GI50": "> 100 µM (inactive)"}
{"molecule": "CC(=O)OC1O[C@@H](C(C)(C)O)CC[C@@H]1[C@H]1CC[C@@]2(C)C3=C(CC[C@]12C)[C@@]1(C)C[C@@H](OC(=O)CC(C)(O)CC(=O)O)[C@H](OC(C)=O)C(C)(C)C1CC3 (some centres not stated)", "target.or.test.system": "MOLT-4", "GI50": "19.4 µM (inactive)"}
{"molecule": "Cc1nc2sccn2c1/C=C1/C(=O)Nc2cccc(Cl)c21", "target.or.test.system": "MOLT-4", "GI50": "> 100 µM (inactive)"}
{"molecule": "CC(C)c1ccc(O)c(=O)cc1 [GAMMA-THUJAPLICIN]", "target.or.test.system": "MOLT-4", "GI50": "2.79 µM (inactive)"}
{"molecule": "Cc1nc(C(=O)O)c2ccccc2n1", "target.or.test.system": "MOLT-4", "GI50": "> 100 µM (inactive)"}
{"molecule": "Cc1ccc(S(=O)(=O)O)cc1.c1cc2c(c(NC3=NCCN3)c1)CCCC2", "target.or.test.system": "MOLT-4", "GI50": "> 100 µM (inactive)"}
